Every entry's value here was drawn from patent US20170369590A1.

This section presents binders with their documented % binding vs no competitor values.
- Target Or Test System: T1, HER2ECDHis (human, UniProt P04626 23-653, biotinylated in the cross-block ELISA (sites not given))
- T1 construct: range 1-653; expressed in HEK-293F; also called soluble HER2; biotinylated HER2ECDHis
- Assay Method Text: ELISA; competitor F5
Reply with just the number (in %).

INSERT INTO results (binder, reported_metric, readout_number) VALUES
  ('HuMab 153 (antibody, V domains shown) VH: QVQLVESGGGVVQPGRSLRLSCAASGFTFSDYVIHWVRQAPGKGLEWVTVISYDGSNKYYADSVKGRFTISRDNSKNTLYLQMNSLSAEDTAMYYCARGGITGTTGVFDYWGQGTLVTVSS VL: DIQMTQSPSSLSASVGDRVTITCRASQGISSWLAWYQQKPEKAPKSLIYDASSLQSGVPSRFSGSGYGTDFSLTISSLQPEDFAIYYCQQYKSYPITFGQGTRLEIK', '% binding vs no competitor', 96),
  ('HuMab 059 (antibody, V domains shown, also called PC1014-059) VH: QVQLVQSGAEVKKPGASVRVPCKASGYTFTRYGISWVRQAPGQGLEWMGWISAYNGKTYYAQKLQGRVTMTTDTSTSTAYMELRSLRSDDTAVYYCARSPLLWFEELYFDYWGQGTLVTVSS VL: EIVLTQSPGTLSLSPGERATLSCRASQSVSSTYLAWYQQKPGQAPRLLIYGASSRATGIPDRFSGSGSGTDFTLTISRLEPEDFAVYYCQQYGTSLFTFGPGTKVDIK', '% binding vs no competitor', 128);

Switching to the query record.
Provide only the value of recorded % binding vs no competitor for HuMab 127 (antibody, V domains shown) VH: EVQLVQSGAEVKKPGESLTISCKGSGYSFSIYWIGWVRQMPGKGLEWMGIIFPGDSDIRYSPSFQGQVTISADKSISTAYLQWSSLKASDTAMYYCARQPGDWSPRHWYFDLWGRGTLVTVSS VL: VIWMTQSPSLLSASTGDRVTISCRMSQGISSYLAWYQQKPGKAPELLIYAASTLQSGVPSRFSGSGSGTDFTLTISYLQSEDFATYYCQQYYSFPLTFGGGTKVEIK
88
